Test: Phase 1 Stage 1 clinical pharmacokinetics of SC ZA co-administered with rHuPH20
Format: in vivo, human
Conditions: human, serum, sc, serum; ZA 5 mg SC infusion + 24000 Units rHuPH20; 10 min post infusion; individual subjects; read-out: Zoledronic Acid Concentration
quantityKind: concentration at 10 min (µg/mL)
Quick reminder: number only, in µg/mL, skip the unit.

Challenge: Return concentration at 10 min (reported value) for this molecule: O=P(O)(O)C(O)(Cn1ccnc1)P(=O)(O)O
Response given: 0.121

----------
Assay: Pharmacokinetics of ZA in pig serum after IV or SC infusion with or without rHuPH20 (LC-MS-MS, non-compartmental analysis)
Type: in vivo
Conditions: female, Yorkshire, pig, serum, intravenous, […], animal ID 67, Study Group 1, IV 20 min infusion, ZA […], rHuPH20 0 U/mL, time 0.5 h; read-out: Zoledronic Acid Serum Concentration
quantityKind: concentration at 0.5 h (ng/mL)
Quick reminder: number only, in ng/mL, skip the unit.

Challenge: Return concentration at 0.5 h (reported value) for this compound: O=P(O)(O)C(O)(Cn1ccnc1)P(=O)(O)O
Response given: 246
